# System: IGROV-1
# measurement.notes: NCI tumour cell line growth inhibition, 48 h
Activity calls are given as the source filed them. Cut-off read from the data, not from the text of the source: active = GI50 up to about 1.1 µM and inactive = higher.
observation.type: GI50

Kindly state the measured GI50 obtained for `CCN1C(=O)/C(=C\Nc2ccccc2)S/C1=N/Nc1ncc(CC(=O)Nc2ccccc2C)s1` with IGROV-1.
> 100 µM (inactive)

Kindly state the measured GI50 obtained for `CNc1ncnc(Sc2nc(N)nc3[nH]cnc23)c1[N+](=O)[O-]` with IGROV-1.
3.85 µM (inactive)

Kindly state the measured GI50 obtained for CC1(C)C(O)C[C@]23CCC[C@](C)(C[C@@H](O)C12)C3 (stereo partly specified) with IGROV-1.
> 100 µM (inactive)

Kindly state the measured GI50 obtained for `Cc1ccc(S(=O)(=O)N2CCNCCN(S(=O)(=O)c3ccc(C)cc3)CCN(S(=O)(=O)c3ccc(C)cc3)CC2)cc1` with IGROV-1.
> 100 µM (inactive)

Kindly state the measured GI50 obtained for `CCOC(=O)CNC1=NNS(=O)(=O)c2ccccc21` with IGROV-1.
> 100 µM (inactive)

Kindly state the measured GI50 obtained for O=C(NC1CCCCCC1)C1C(=O)N(C2CCCCCC2)C(=O)/C1=N\O (stereo unspecified) with IGROV-1.
50 µM (inactive)

Kindly state the measured GI50 obtained for `COc1cc2oc(=O)ccc2cc1CC=C(C)C` with IGROV-1.
62.8 µM (inactive)

Kindly state the measured GI50 obtained for `COc1cc2c(cc1C)NC(=O)/C2=C/c1c(Cl)n(C)c2ccccc12` with IGROV-1.
3.81 µM (inactive)

Kindly state the measured GI50 obtained for `C=CCNC(=S)OCCCCCCCCCC` with IGROV-1.
20 µM (inactive)

Kindly state the measured GI50 obtained for `O=c1oc2cc(O)ccc2c2[nH]c3cc(O)ccc3c12` with IGROV-1.
23.1 µM (inactive)

Kindly state the measured GI50 obtained for `ON/N=C/c1cc2c(cc1Br)OCO2` with IGROV-1.
> 386 µM (inactive)

Kindly state the measured GI50 obtained for O=C1OC(C(O)CO)C(C(O)CO)OC1=O (stereo unspecified) with IGROV-1.
> 10 µM (inactive)

Kindly state the measured GI50 obtained for `CCn1c(SCC(=O)N/N=C2\SCC(=O)N2c2ccc(C)cc2)nc2ccccc2c1=O` with IGROV-1.
21.6 µM (inactive)

Kindly state the measured GI50 obtained for CN(C(=O)C12C3C4C1C1C2C3C41C#N)C(C)(C)C (stereo unspecified) with IGROV-1.
> 100 µM (inactive)

Kindly state the measured GI50 obtained for CCC(C)C(C(=O)N/N=C1/SCC(=O)N1C)C(=O)N/N=C1/SCC(=O)N1C (stereo unspecified) with IGROV-1.
> 100 µM (inactive)

Kindly state the measured GI50 obtained for `Oc1ccc2ccccc2c1/N=N/c1ccc(/N=N/c2ccccc2)cc1` with IGROV-1.
> 100 µM (inactive)
